Below is a list of entries, each paired with its recorded IC50 value.
Assay: in vitro
Conditions: rat
Square brackets hold non-standard residues; d marks the D form. Peptide text beside a SMILES is read from it. Trp(1-OMe) = COn1cc(C[C@H](N)C(=O)O)c2ccccc21; Asu = N[C@@H](CCCCCC(=O)O)C(=O)O; dPip = O=C(O)[C@H]1CCCCN1

>  <compound>
COn1cc(C[C@@H]2NC(=O)[C@H](CCCCCCO)NC(=O)[C@H]3CCCN3C(=O)[C@H](Cc3ccccc3)NC2=O)c2ccccc21 [Apicidin L (4)]

>  <unit.symbol>
µM

>  <IC50>
20

$$$$
>  <compound>
COn1cc(C[C@@H]2NC(=O)[C@H](CCCCCCO)NC(=O)[C@H]3CCCCN3C(=O)[C@H](Cc3ccccc3)NC2=O)c2ccccc21 [Apicidin K (3)]

>  <unit.symbol>
µM

>  <IC50>
7.2

$$$$
>  <compound>
COn1cc(C[C@@H]2NC(=O)[C@H](CCCCCC(=O)O)NC(=O)[C@H]3CCCCN3C(=O)[C@H](Cc3ccccc3)NC2=O)c2ccccc21 [Apicidin F (1)] (cyclo([Asu][Trp(1-OMe)]F[dPip]))

>  <unit.symbol>
µM

>  <IC50>
63.7

$$$$
>  <compound>
COn1cc(C[C@@H]2NC(=O)[C@H](CCCCCC(=O)O)NC(=O)[C@H]3CCCN3C(=O)[C@H](Cc3ccccc3)NC2=O)c2ccccc21 [Apicidin J (2)] (cyclo([Asu][Trp(1-OMe)]F[dP]))

>  <unit.symbol>
µM

>  <IC50>
46.5

$$$$

###

Target: HDAC1 (Homo sapiens, UniProt Q13547)
Construct: purchased BPS Bioscience 50051
Sequence (Q13547 whole entry): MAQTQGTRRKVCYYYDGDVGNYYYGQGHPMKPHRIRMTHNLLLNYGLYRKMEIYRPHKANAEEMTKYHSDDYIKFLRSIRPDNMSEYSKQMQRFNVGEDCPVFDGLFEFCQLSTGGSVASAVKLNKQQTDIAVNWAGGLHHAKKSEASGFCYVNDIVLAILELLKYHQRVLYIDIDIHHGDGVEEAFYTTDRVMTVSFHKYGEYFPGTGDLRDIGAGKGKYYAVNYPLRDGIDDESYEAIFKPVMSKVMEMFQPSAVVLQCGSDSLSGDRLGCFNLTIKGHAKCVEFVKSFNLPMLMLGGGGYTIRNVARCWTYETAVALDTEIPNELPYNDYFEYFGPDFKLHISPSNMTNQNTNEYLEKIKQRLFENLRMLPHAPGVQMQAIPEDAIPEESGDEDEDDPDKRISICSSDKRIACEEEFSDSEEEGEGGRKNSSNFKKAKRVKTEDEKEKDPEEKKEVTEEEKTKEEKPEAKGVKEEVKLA
Assay: In vitro HDAC inhibition assay (ZMAL substrate), HDAC1
Assay type: biochemical
pIC50: −log10 of the molar value.
measured.attribute: pIC50

>  <compound>
COn1cc(C[C@@H]2NC(=O)[C@H](CCCCCCO)NC(=O)[C@H]3CCCN3C(=O)[C@H](Cc3ccccc3)NC2=O)c2ccccc21 [Apicidin L (4)]

>  <measured.attribute>
pIC50

>  <result>
< 5.00

$$$$

###

Assay: in vitro
Details: human
measured.attribute: IC50 (nM)

>  <chemical.string>
CCC(=O)CCCCC[C@@H]1NC(=O)[C@H]2CCCCN2C(=O)[C@H]([C@@H](C)CC)NC(=O)[C@H](Cc2cn(OC)c3ccccc23)NC1=O

>  <unit.symbol>
nM

>  <number>
2700

$$$$

###

Target: HDAC6 (Homo sapiens, UniProt Q9UBN7)
Construct: purchased BPS Bioscience 50006
Sequence (Q9UBN7 whole entry): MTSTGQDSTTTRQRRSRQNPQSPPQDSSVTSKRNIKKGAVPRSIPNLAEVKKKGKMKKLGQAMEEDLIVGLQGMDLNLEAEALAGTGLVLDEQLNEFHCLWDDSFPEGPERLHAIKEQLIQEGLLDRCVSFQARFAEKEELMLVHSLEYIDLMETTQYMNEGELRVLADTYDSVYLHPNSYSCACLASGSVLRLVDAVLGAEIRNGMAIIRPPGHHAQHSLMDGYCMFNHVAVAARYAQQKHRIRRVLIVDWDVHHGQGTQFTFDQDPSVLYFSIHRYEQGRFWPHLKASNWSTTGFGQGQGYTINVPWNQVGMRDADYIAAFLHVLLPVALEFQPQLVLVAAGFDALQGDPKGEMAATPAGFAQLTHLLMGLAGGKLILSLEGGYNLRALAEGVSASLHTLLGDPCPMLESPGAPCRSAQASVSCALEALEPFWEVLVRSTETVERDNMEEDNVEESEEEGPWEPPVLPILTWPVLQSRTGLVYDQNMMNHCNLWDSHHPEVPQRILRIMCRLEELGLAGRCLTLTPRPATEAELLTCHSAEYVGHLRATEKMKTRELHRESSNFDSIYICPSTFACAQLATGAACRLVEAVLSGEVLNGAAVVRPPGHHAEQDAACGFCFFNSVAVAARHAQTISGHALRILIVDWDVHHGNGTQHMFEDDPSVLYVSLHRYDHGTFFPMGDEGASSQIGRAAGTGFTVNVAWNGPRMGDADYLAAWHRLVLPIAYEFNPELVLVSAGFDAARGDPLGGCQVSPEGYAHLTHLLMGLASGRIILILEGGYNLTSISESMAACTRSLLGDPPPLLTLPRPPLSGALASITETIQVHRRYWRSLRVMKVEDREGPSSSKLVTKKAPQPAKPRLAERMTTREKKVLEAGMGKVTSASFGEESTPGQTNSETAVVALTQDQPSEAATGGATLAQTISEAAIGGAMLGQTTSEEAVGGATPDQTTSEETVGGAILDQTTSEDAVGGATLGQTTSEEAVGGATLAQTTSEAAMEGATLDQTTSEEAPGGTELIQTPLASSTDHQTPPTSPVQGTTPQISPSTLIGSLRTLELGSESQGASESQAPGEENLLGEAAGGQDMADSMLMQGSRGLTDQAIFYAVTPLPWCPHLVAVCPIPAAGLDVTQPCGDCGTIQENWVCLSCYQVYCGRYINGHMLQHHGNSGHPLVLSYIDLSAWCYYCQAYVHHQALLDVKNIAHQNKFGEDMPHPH
Assay: In vitro HDAC inhibition assay (ZMAL substrate), HDAC6
Type: biochemical
pIC50: −log10 of the molar value.

>  <molecule>
COn1cc(C[C@@H]2NC(=O)[C@H](CCCCCCO)NC(=O)[C@H]3CCCN3C(=O)[C@H](Cc3ccccc3)NC2=O)c2ccccc21 [Apicidin L (4)]

>  <pIC50>
< 5.00

$$$$

###

Target: HDAC3/NcoR2 (Homo sapiens, UniProt O15379)
Sequence (O15379 whole entry): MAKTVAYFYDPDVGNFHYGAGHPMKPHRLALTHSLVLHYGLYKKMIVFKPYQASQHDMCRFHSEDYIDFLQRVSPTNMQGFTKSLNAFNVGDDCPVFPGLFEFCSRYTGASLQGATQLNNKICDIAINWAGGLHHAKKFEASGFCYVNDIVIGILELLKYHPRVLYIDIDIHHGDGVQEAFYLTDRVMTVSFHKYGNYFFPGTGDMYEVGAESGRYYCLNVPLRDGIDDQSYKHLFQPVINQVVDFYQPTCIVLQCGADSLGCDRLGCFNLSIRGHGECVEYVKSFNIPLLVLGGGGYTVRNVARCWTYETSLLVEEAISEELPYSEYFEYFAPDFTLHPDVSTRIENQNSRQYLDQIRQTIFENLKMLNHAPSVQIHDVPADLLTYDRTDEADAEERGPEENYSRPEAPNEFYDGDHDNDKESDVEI
Sequence (Q9Y618 395-489 partner limits assumed): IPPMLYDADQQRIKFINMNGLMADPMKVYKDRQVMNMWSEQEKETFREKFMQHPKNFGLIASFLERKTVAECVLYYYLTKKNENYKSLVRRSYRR
Assay: In vitro HDAC inhibition assay (ZMAL substrate), HDAC3
Conditions: mean ± SD of at least two independent experiments
Square brackets hold non-standard residues; d marks the D form. Peptide text beside a SMILES is read from it. Trp(1-OMe) = COn1cc(C[C@H](N)C(=O)O)c2ccccc21; Asu = N[C@@H](CCCCCC(=O)O)C(=O)O; dPip = O=C(O)[C@H]1CCCCN1
Below is a list of entries, each paired with its recorded IC50 value.

>  <molecule>
COn1cc(C[C@@H]2NC(=O)[C@H](CCCCCC(=O)O)NC(=O)[C@H]3CCCN3C(=O)[C@H](Cc3ccccc3)NC2=O)c2ccccc21 [Apicidin J (2)] (cyclo([Asu][Trp(1-OMe)]F[dP]))

>  <unit.symbol>
nM

>  <IC50>
754

$$$$
>  <molecule>
COn1cc(C[C@@H]2NC(=O)[C@H](CCCCCC(=O)O)NC(=O)[C@H]3CCCCN3C(=O)[C@H](Cc3ccccc3)NC2=O)c2ccccc21 [Apicidin F (1)] (cyclo([Asu][Trp(1-OMe)]F[dPip]))

>  <unit.symbol>
nM

>  <IC50>
202

$$$$
